target.or.test.system: T1, recombinant, soluble his tagged human EGFR (Sino Biologicals) (human, UniProt P00533 25-645)
T1 construct: extracellular domain; also called human epidermal growth factor receptor; not shown: his tag
experiment.description: BLI (ForteBio Octet Red), IgG on protein A tips, 100 nM soluble EGFR;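 also: antibody binding to EGFR read out as on and off rates plus equilibrium affinity, calculated with the Octet instrument software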
readout.kind: binding result

Lab book: binding result of CoDAH design C5 VH/C4 Vκ (antibody, V domains shown, Cross pair; Measured as full length IgG) VH: QVQLQQSGPGLVKPSETLSITCTVSGFSLTNYGVHWVRQSPGKGLEWLGVIWSGGNTDYNTPFTSRLTINKDNSKSQVFFKMNSLQSNDTAVYYCARALTYYDYEFAYWGQGTLVTVSA VL: DIVLTQSPVILSVSPGERVTFSCRASQSIGTNIHWYQQKPDQSPKLLIKYASESISGVPSRFSGSGSGTDFTLTINSVESEDIADYYCQQNNNWPTTFGQGTKLELKR noted as binds

Lab book: binding result of CoDAH design C1 VH/C4 Vκ (antibody, V domains shown, Cross pair; Measured as full length IgG) VH: QVQLQQSGPGLVKPSQTLSLTCTVSGFSLTNYGVHWVRQSPGKGLEWLGVIWSGGNTDYNTPFTSRLTISKDTSKNQVSLKLSSVTSNDTAVYYCARALTYYDYEFAYWGQGTLVTVSA VL: DIVLTQSPVILSVSPGERVTFSCRASQSIGTNIHWYQQKPDQSPKLLIKYASESISGVPSRFSGSGSGTDFTLTINSVESEDIADYYCQQNNNWPTTFGQGTKLELKR noted as binds
